Ref: patent US20240174755A1

Target: human PDGFR β ECD (U-protein Express, Utrecht) (human) (UniProt P09619)
Sequence (P09619 33-532): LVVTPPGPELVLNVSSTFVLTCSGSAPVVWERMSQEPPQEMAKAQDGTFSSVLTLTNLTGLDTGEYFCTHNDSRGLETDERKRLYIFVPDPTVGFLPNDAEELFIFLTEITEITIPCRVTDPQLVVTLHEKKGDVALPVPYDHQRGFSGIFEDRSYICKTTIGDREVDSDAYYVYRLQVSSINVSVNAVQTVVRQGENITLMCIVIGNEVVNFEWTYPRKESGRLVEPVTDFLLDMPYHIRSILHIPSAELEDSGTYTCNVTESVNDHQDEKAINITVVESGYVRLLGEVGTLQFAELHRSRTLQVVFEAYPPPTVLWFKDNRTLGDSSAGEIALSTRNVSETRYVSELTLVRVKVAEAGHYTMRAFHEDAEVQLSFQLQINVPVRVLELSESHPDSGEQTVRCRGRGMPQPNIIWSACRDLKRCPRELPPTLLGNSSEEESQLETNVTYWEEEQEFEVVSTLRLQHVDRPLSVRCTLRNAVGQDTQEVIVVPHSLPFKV
Assay: dose response ELISA, PDGFR β ECD coated at 2 µg/ml, rabbit anti-VHH detection
assay metric: apparent affinity

{"columns": ["binder", "assay metric", "result"],
 "data": [
  ["QPD-1H4 (VHH) VHH: EVQLVESGGGLVQPGGSLRVSCSASWRTGNPFAMAWFRQAPGKERELIARISWTAGRTEYAESAKGRFTISRDVAKKTMYLQMNSLTPEDTGVYFCAARFVPSSGPTVFDTWGQGTQVTVSS", "apparent affinity", "< 1 nM"],
  ["QPD-1D4 (VHH, Purified, unconjugated VHH; also called VHH 1D4) VHH: EVQLVESGGGLVQAGDSLRLSCAVSGRAQSRDVVGWFRQAPGKEREFLALVTRSYSTYYGASVKGRFTISRDNAKNTVHLEMNSLKPEDTGVYYCAADQGFCSGSGCYDWRTFHVWGQGTQVTVSS", "apparent affinity", "< 1 nM"],
  ["QPD-1B5 (VHH, Purified, unconjugated VHH; also called VHH 1B5) VHH: EVQLVESGGGLVQPGGSLRLSCVASGFSFSESAMSWVRQAPGKGLEWLSGISSGGGRSTTYAESVEGRFTISRDDAKNTLMLQMNSLKSEDTAVYYCAKTGYCSGYNCNFAPRGQGTQVTVSS", "apparent affinity", "1 nM"]
]}

Alright, here's another binder for you.
Q) Reported apparent affinity, binder QPD-1E12 (VHH) VHH: EVQLVESGGGLVQAGGSLRLSCAPSERSFSAYLMGWFRQAQGKEREFVAAWRWPTSTTYYSDSGKGRFTITGDNAKNTVELEMNSLKPEDTAVYYCAARRGILYGPATSPTAYDFWGQGTQVTVSS : ____
A) 10 nM
